Tested on: ATP;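 note: ATP exposure 15 min at 22 °C before imaging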
Experiment: switch fluorescence ratio, 500 uM ATP over buffer (Cy3 cluster intensity, sum of 5 cycles each) (fold (ratio)); higher = stronger signal-on switching upon ATP binding; sequences stand for … in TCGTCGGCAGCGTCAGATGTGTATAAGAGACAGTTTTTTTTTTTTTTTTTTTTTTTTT…TC
Conditions: aptamer strand: ATP DNA aptamer (quencher-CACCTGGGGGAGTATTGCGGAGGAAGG + anchor), 100 nM annealed; ATP concentration: 500 uM
reported-endpoint: switch fluorescence ratio
# print the numeric value only

CCCGGGTCGC
1.05
TTTCAGTGCA
1.02
GCTATAGGGA
0.957

# `AAATTGGGGG` with ATP: switch fluorescence ratio is 1.02

# `TTACGGAT` with ATP: switch fluorescence ratio is 1.06

# `AGCAGACTGG` with ATP: switch fluorescence ratio is 0.988

# `TGATGGCCGG` with ATP: switch fluorescence ratio is 1.05

# `TTATACGTAG` with ATP: switch fluorescence ratio is 1.03

# `TTGGTGAGGT` with ATP: switch fluorescence ratio is 0.99

# `TTGGCATGGG` with ATP: switch fluorescence ratio is 0.99

# `AACCTATGCT` with ATP: switch fluorescence ratio is 1.01

* * *

Test system: ATP;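 note: ATP exposure 15 min at 22 °C before imaging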
Experiment: switch fluorescence ratio, 500 uM ATP over buffer (Cy3 cluster intensity, sum of 5 cycles each) (fold (ratio)); higher = stronger signal-on switching upon ATP binding; sequences stand for … in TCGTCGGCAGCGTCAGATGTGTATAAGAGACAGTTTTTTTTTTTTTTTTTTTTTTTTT…TC
Details: aptamer strand: ATP DNA aptamer (quencher-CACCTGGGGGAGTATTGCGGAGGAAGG + anchor), 100 nM annealed; ATP concentration: 500 uM
reported-endpoint: switch fluorescence ratio
# print the numeric value only

ATGATTTAAC
0.976

`TCAAAATTTA` has a reported switch fluorescence ratio of 1.02

`GGGAGGAAGC` has a reported switch fluorescence ratio of 0.99

`CGCCGGCGGG` has a reported switch fluorescence ratio of 0.978

`CGTGGTGCTC` has a reported switch fluorescence ratio of 1.07

`CAGGGAACGG` has a reported switch fluorescence ratio of 1.05

`GCTAGGGGGG` has a reported switch fluorescence ratio of 1

`TCACCTTGGA` has a reported switch fluorescence ratio of 1.05

* * *

Tested on: ATP;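 note: ATP exposure 15 min at 22 °C before imaging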
Test: switch fluorescence ratio, 500 uM ATP over buffer (Cy3 cluster intensity, sum of 5 cycles each) (fold (ratio)); higher = stronger signal-on switching upon ATP binding; sequences stand for … in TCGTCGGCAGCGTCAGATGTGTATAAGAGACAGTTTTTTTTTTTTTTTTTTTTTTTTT…TC
Conditions: aptamer strand: ATP DNA aptamer (quencher-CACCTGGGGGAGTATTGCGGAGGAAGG + anchor), 100 nM annealed; ATP concentration: 500 uM
reported-endpoint: switch fluorescence ratio

GGCTAAGGGG
0.992
TAGAACCGGG
1.09
GTAAGCCCGC
1
TTGGGCCCGT
1.02
AGGCAGACTT
1
TCATAATTAG
1
CAAAAAAAAG
1.03
GTTTTTAAGA
1.03

# `GTTTTGGTTA` with ATP: switch fluorescence ratio is 1.01

# `CGTATCTAGG` with ATP: switch fluorescence ratio is 0.98

# `TGATACGCTA` with ATP: switch fluorescence ratio is 1.28
